Values compiled from patent US20230382925A1.

- System name: CFTR (Homo sapiens)
- Method summary: Membrane Potential Dye, Enteroid Assay B
- Format: cell-based
- Condition: Table 10
Reported metric: Ent. B Max Activity (%)

[[record]]
compound = "Cc1cccc(C)c1-c1cc2nc(n1)NS(=O)(=O)c1cccc(c1)C(=O)N(c1cnn(C(C)C)c1)[C@H](CC(C)(C)C)CO2 [Compound 228]"
result = "+++ (+++ is >60%)"

[[record]]
compound = "COC(=O)NC1(C)CC2(CC(N3C(=O)c4cccc(c4)S(=O)(=O)Nc4nc(cc(-c5c(C)cccc5C)n4)OC[C@H]3CC(C)(C)C)C2)C1 (single isomer, unassigned) [Compound 95]"
result = "+++ (+++ is >60%)"


---

- System name: CFTR (Homo sapiens, UniProt P13569)
- Sequence (P13569 with tags, fused parts or gaps DEL508-508): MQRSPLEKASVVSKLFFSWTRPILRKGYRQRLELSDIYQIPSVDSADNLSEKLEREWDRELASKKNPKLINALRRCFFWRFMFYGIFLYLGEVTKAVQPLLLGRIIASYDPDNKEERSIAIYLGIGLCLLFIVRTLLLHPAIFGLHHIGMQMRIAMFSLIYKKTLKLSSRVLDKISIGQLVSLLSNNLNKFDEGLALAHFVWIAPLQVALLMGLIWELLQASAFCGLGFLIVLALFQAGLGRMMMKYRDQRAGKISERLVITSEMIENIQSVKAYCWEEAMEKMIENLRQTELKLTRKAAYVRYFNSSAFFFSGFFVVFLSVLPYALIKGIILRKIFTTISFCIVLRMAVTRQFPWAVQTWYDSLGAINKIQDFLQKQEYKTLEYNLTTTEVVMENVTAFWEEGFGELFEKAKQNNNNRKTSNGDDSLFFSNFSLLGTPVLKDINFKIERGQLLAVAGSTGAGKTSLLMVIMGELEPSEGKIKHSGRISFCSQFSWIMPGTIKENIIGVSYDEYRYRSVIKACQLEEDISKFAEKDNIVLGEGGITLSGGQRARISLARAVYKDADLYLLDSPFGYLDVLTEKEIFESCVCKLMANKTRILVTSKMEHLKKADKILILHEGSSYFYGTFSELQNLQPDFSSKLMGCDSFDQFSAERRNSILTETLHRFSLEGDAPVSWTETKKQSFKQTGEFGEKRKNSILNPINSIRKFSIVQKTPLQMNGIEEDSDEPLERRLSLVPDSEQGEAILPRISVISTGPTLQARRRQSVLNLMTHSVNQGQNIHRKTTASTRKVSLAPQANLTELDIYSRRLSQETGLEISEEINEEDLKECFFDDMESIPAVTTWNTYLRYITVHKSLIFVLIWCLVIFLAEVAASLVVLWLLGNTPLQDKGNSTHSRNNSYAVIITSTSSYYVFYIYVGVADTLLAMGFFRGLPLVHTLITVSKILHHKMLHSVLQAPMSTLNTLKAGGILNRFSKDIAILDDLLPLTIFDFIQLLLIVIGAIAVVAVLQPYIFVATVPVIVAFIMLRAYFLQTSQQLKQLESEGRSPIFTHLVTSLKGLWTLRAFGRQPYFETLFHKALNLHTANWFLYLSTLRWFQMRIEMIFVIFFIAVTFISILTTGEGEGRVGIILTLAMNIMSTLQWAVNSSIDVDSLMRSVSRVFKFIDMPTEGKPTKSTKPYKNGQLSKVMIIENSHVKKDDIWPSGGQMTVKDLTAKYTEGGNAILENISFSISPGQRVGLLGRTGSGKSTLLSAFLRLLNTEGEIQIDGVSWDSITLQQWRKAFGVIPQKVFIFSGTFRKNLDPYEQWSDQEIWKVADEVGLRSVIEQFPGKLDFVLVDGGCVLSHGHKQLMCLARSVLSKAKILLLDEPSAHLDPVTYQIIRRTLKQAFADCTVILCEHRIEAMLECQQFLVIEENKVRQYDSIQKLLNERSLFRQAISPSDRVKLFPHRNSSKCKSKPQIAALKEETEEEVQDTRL
- Method summary: Membrane Potential Dye, Enteroid Assay B
- Type: cell-based
- Condition: Table 10
Reported metric: Ent. B Max Activity (%)

Example entries and their recorded answers appear below.
[[record]]
compound = "Cc1cccc(C)c1-c1cc2nc(n1)NS(=O)(=O)c1cccc(c1)C(=O)N(C1CC(CO)(C(C)(C)O)C1)[C@H](CC(C)(C)C)CO2 (single isomer, unassigned) [Compound 160]"
result = "+++ (+++ is >60%)"

[[record]]
compound = "CCC(=O)N[C@H]1C[C@@]2(C1)C[C@H](N1C(=O)c3cccc(c3)S(=O)(=O)Nc3nc(cc(-c4c(C)cccc4C)n3)OC[C@H]1CC1(C(F)(F)F)CC1)C2 (stereo partly drawn) [Compound 248]"
result = "+++ (+++ is >60%)"

[[record]]
compound = "CC(=O)N1CCC12CC(N1C(=O)c3cccc(c3)S(=O)(=O)Nc3nc(cc(-c4c(C)cccc4C)n3)OC[C@H]1CC(C)(C)C)C2 (stereo partly drawn) [Compound 207]"
result = "+++ (+++ is >60%)"

[[record]]
compound = "Cc1cccc(C)c1-c1cc2nc(n1)NS(=O)(=O)c1cccc(c1)C(=O)N(C1CC(N(C)C)C1)[C@H](CC(C)(C)C)CO2 (stereo partly drawn) [Compound 254]"
result = "++ (++ is 30-60%)"

[[record]]
compound = "Cc1cccc(C)c1-c1cc2nc(n1)NS(=O)(=O)c1cccc(c1)C(=O)N([C@@H]1CC[C@@H]1C1CC1)[C@H](CC(C)(C)C)CO2 (single isomer, unassigned) [Compound 148]"
result = "+++ (+++ is >60%)"

[[record]]
compound = "Cc1cccc(C)c1-c1cc2nc(n1)NS(=O)(=O)c1cccc(c1)C(=O)N(C1CC3(CCN3C(=O)CO)C1)[C@H](CC(C)(C)C)CO2 (stereo partly drawn) [Compound 146]"
result = "+++ (+++ is >60%)"

[[record]]
compound = "COC(=O)NC1(C)CC2(CC(N3C(=O)c4cccc(c4)S(=O)(=O)Nc4nc(cc(-c5c(C)cccc5C)n4)OC[C@H]3CC(C)(C)C)C2)C1 (single isomer, unassigned) [Compound 96]"
result = "++ (++ is 30-60%)"

[[record]]
compound = "Cc1cccc(C)c1-c1cc2nc(n1)NS(=O)(=O)c1cccc(c1)C(=O)N(C1CC3(C1)CC(C(C)(C)O)C3)[C@H](CCC(C)(C)C)CO2 (single isomer, unassigned) [Compound 9]"
result = "+++ (+++ is >60%)"


Would you kindly share the measured Ent. B Max Activity (%) for Cc1cccc(C)c1-c1cc2nc(n1)NS(=O)(=O)c1cccc(c1)C(=O)N(C1CS(=O)(=O)C1)[C@H](CC(C)C)CO2 [Compound 41] ?
+++ (+++ is >60%)

Cc1cccc(C)c1-c1cc2nc(n1)NS(=O)(=O)c1cccc(c1)C(=O)N([C@H]1C[C@@H](N3CCOC3=O)C1)[C@H](CC(C)(C)C)CO2 (single isomer, unassigned) [Compound 167] ?
++ (++ is 30-60%)

Cc1cccc(C)c1-c1cc2nc(n1)NS(=O)(=O)c1cccc(c1)C(=O)N(C1CC(N(C)C)C1)[C@H](CC(C)(C)C)CO2 (stereo partly drawn) [Compound 253] ?
++ (++ is 30-60%)

Cc1cccc(C)c1-c1cc2nc(n1)NS(=O)(=O)c1cccc(c1)C(=O)N([C@H]1C[C@@H](C(C)(C)O)C1)[C@H](CC(C)(C)C)CO2 (single isomer, unassigned) [Compound 142] ?
+++ (+++ is >60%)

COC(=O)NC1(C)CC(N2C(=O)c3cccc(c3)S(=O)(=O)Nc3nc(cc(-c4c(C)cccc4C)n3)OC[C@H]2CC(C)(C)C)C1 (single isomer, unassigned) [Compound 171] ?
+++ (+++ is >60%)
